IC50 listing for selected compounds.
# TARGET_SYSTEM: Syk (Homo sapiens)

compound="Cc1cc(C)cc(Nc2nc3c(-c4cccnc4)nccn3n2)c1 [Example C4]" result="0.3 to 3 µM"

input: // returns reported IC50 for input c1ccc2ncc(-c3nccn4nc(Nc5ccc(N6CCOCC6)cc5)nc34)cc2c1 [Example C261]
output: < 0.3 µM

input: What would you report for COc1cc(Nc2nc3c(NCCCN4CCOCC4)nccn3n2)cc(OC)c1 [Example C39] ?
output: 3 to 50 µM

input: And for Cc1cc(C)cc(Nc2nc3c(Cl)nccn3n2)c1 [Example B1] ?
output: 3 to 50 µM

====

Reported IC50 values for a set of compounds
# TARGET_SYSTEM: KDR (Homo sapiens, UniProt P35968)
# Construct: purchased BPS Bioscience, CA, USA
# Sequence (P35968 20-1356): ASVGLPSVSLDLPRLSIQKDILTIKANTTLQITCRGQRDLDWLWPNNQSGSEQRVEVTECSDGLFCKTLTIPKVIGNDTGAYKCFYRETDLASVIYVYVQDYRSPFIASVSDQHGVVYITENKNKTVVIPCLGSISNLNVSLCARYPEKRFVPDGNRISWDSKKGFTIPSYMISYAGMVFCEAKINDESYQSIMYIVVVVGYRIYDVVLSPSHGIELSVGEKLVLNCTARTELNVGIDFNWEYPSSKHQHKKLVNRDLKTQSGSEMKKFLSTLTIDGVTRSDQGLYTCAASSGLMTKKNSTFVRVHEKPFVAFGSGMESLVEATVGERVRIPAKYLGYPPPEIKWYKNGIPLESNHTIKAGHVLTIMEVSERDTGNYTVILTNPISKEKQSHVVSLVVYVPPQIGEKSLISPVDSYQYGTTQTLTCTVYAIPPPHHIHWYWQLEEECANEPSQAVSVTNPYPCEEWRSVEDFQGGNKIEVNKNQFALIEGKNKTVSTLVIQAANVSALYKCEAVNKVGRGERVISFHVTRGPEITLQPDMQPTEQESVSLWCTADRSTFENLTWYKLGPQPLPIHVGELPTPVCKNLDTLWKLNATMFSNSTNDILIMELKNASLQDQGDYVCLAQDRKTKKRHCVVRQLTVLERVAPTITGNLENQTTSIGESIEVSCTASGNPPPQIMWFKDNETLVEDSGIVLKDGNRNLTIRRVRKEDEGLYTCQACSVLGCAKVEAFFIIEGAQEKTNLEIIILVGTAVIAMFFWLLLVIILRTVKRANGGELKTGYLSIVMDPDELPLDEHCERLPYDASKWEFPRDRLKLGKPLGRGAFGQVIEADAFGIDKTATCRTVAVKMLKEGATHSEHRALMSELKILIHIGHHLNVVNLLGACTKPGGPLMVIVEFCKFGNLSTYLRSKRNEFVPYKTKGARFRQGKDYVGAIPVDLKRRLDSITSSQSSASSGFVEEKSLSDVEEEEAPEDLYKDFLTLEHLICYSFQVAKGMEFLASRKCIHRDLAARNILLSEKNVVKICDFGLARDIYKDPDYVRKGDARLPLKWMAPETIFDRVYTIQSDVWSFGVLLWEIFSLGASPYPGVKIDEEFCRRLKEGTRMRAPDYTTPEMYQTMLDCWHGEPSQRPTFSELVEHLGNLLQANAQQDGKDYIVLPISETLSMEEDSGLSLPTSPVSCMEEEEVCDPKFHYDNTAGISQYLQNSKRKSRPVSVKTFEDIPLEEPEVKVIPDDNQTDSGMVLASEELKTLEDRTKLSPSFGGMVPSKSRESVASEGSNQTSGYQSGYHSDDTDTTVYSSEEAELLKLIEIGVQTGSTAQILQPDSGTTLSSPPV
# EXPERIMENTAL_PROTOCOL: KDR enzymatic assay (Caliper LifeSciences technology)
# Format: biochemical
# Text: Enzymatic Assays Using the Caliper LifeSciences Technology […] The plate is read on a Caliper LC 3000 in an Off-Chip mobility shift assay format, on a 12-sipper chip. […] The percent conversion can be plotted against concentration of inhibitor to produce a sigmoidal dose response curve, from which an IC50 can be calculated using GeneData Condoseo or a similar product. […]

Examples with answers:
query_smiles=COc1cc(Nc2nc3c(-c4cccnc4)nccn3n2)cc(OC)c1 measure=IC50 result="0.3 to 3 µM"
query_smiles=Cc1cccc(Nc2nc3c(-c4cccnc4)nccn3n2)c1 measure=IC50 result="0.3 to 3 µM"
query_smiles=FC(F)(F)c1cccc(Nc2nc3c(NCCCN4CCOCC4)nccn3n2)c1 measure=IC50 result="3 to 50 µM"

input: GET /values?readout=IC50&item= `NCCNc1nccn2nc(Nc3cccc(C(F)(F)F)c3)nc12`
output: 3 to 50 µM

input: Follow-up entry: `COc1cc(Nc2nc3c(-c4cccc5[nH]ncc45)nccn3n2)cc(OC)c1`
output: 0.3 to 3 µM

====

pIC50, Src (Homo sapiens), per-entry values.
pIC50: −log10 of the molar value.

Some solved cases for reference:
compound=NCc1cccc(-c2nccn3nc(Nc4ccc(N5CCOCC5)cc4)nc23)c1 measure=pIC50 result="5.52 to 6.52"
compound=c1ccc(Nc2nc3c(-c4cccnc4)nccn3n2)cc1 measure=pIC50 result="4.30 to 5.52"
compound=COCCCNc1nccn2nc(Nc3cc(OC)cc(OC)c3)nc12 measure=pIC50 result="4.30 to 5.52"

input: I'd like to know its pIC50. The compound in question is `NC(=O)c1cccc(-c2nccn3nc(Nc4ccc(N5CCOCC5)cc4)nc23)c1`
output: 5.52 to 6.52

input: Next compound up: `COc1cc(Nc2nc3c(-c4ccc5cccnc5c4)nccn3n2)cc(OC)c1`
output: 5.52 to 6.52

input: Now give it for Cc1nc2cc(Nc3nc4c(-c5cnn(C)c5)nccn4n3)ccc2[nH]1 [Example D1] too.
output: 5.52 to 6.52

input: Check `Oc1cccc(-c2nccn3nc(Nc4ccc(N5CCOCC5)cc4)nc23)c1` too.
output: 5.52 to 6.52

input: // same read-out, input: COCC(O)Cn1cc(-c2nccn3nc(Nc4ccc(N5CCOCC5)cc4)nc23)cn1 (stereo not drawn)
output: 5.52 to 6.52

input: Query `CN(C)c1ccc(-c2nccn3nc(Nc4ccc(N5CCOCC5)cc4)nc23)cn1` next
output: 5.52 to 6.52

input: Would you kindly repeat that for Cn1ncc2cc(-c3nccn4nc(Nc5ccc(N6CCOCC6)cc5)nc34)ccc21 [Example D2] ?
output: 5.52 to 6.52

input: How about this compound: `COc1cc(Nc2nc3c(-c4cccc(O)c4)nccn3n2)cc(OC)c1`
output: 5.52 to 6.52

input: Now this one: `COc1cc(Nc2nc3c(-c4cccc(NS(C)(=O)=O)c4)nccn3n2)cc(OC)c1`
output: 5.52 to 6.52

input: Thanks! And `Cc1cc(C)cc(Nc2nc3c(NCCCN4CCN(C)CC4)nccn3n2)c1` ?
output: 4.30 to 5.52

input: // repeat for `O=C1Nc2cc(Nc3nc4c(-c5nccs5)nccn4n3)ccc2OC1(F)F` and report
output: 4.30 to 5.52

input: `COc1cc(Nc2nc3c(NCCN)nccn3n2)cc(OC)c1` , same question.
output: 4.30 to 5.52

input: Next record, please: `Cn1ccnc1Sc1ccc(Nc2nc3c(-c4ccccc4)nccn3n2)cc1Cl`
output: 4.30 to 5.52

input: Field entry: `Cc1cccc(Nc2nc3c(NCCCN4CCN(C)CC4)nccn3n2)c1`
output: 4.30 to 5.52

input: Let us now turn to `c1ccc2ncc(-c3nccn4nc(Nc5ccc(N6CCOCC6)cc5)nc34)cc2c1`
output: 5.52 to 6.52

====

# TARGET_SYSTEM: BTK (Homo sapiens, UniProt Q06187)
# Construct: purchased Carna Bioscience, Kobe, Japan
# Sequence (Q06187 whole entry): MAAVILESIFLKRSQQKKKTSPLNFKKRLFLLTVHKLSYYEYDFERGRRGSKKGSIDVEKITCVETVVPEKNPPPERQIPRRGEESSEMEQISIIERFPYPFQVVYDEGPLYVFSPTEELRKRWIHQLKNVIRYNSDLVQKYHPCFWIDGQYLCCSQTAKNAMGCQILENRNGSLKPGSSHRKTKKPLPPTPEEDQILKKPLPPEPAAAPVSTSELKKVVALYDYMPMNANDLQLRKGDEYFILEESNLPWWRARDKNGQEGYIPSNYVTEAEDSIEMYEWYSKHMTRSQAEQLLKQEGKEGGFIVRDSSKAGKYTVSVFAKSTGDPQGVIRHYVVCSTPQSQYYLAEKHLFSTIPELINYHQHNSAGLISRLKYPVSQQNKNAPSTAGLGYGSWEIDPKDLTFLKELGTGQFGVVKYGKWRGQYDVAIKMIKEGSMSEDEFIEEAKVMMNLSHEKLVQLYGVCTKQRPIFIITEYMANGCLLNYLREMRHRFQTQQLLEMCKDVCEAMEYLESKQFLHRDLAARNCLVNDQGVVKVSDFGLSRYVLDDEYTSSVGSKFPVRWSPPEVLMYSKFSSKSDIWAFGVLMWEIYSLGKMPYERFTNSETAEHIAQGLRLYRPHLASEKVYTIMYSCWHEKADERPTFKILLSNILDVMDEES
# EXPERIMENTAL_PROTOCOL: BTK enzymatic assay (Caliper LifeSciences technology)
# Type: biochemical
MEASURE: IC50

query_smiles=COc1cc(Nc2nc3c(-c4cccnc4)nccn3n2)cc(OC)c1 target_system="BTK (Homo sapiens, UniProt Q06187)" measure=IC50 result="3 to 50 µM"

With those in mind, consider the next compound.
input: Could you tell me which IC50 is on file for `c1ccc(Nc2nc3c(-c4nccs4)nccn3n2)cc1` ?
output: 3 to 50 µM

====

Read-out record for UniProt:P35968: pIC50
pIC50: −log10 of the molar value.

Worked examples, 2 compounds total:
compound="Cc1cc(C)cc(Nc2nc3c(Cl)nccn3n2)c1 [Example B1]" target_system=UniProt:P35968 measure=pIC50 result="4.30 to 5.52"
compound="NC(=O)c1cccc(-c2nccn3nc(Nc4ccc(N5CCOCC5)cc4)nc23)c1 [Example C277]" target_system=UniProt:P35968 measure=pIC50 result="> 6.52"

Note: attention shifts to another entry.
input: State the recorded pIC50 for this entry: Cc1nc2cc(Nc3nc4c(-c5cnn(C)c5)nccn4n3)ccc2[nH]1 [Example D1]
output: 5.52 to 6.52

====

# IC50 per entry for ZAP-70 (Homo sapiens, UniProt P43403)

Consider the reported IC50 for these molecules:
query_smiles=COc1cc(Nc2nccn3nc(Nc4cccc(C(F)(F)F)c4)nc23)cc(OC)c1 measure=IC50 result="3 to 50 µM"
query_smiles=c1ccc2ncc(-c3nccn4nc(Nc5ccc(N6CCOCC6)cc5)nc34)cc2c1 measure=IC50 result="3 to 50 µM"
query_smiles=COc1cc(Nc2nc3c(-c4cccc(NS(C)(=O)=O)c4)nccn3n2)cc(OC)c1 measure=IC50 result="0.3 to 3 µM"

Would you kindly look at the next entry?
input: Field request: IC50 | item: `Cc1cccc(Nc2nc3c(NCCCN4CCOCC4)nccn3n2)c1`
output: 3 to 50 µM

====

IC50 reference
# TARGET_SYSTEM: KDR (Homo sapiens)
# Construct: purchased BPS Bioscience, CA, USA
# EXPERIMENTAL_PROTOCOL: KDR enzymatic assay (Caliper LifeSciences technology)
# Format: biochemical

Here is how some molecules turned out for IC50.
molecule=c1ccc(Nc2nc3c(-c4nccs4)nccn3n2)cc1 result="3 to 50 µM"
molecule=COCCCNc1nccn2nc(Nc3cccc(C)c3)nc12 result="3 to 50 µM"
molecule=COCCCNc1nccn2nc(Nc3ccccc3)nc12 result="3 to 50 µM"
molecule=c1ccc(Nc2nc3c(NCCCN4CCOCC4)nccn3n2)cc1 result="3 to 50 µM"

input: Which IC50 is reported for this molecule? Cc1cccc(Nc2nc3c(NC4CCCCC4N)nccn3n2)c1 (centres unmarked)
output: 3 to 50 µM

====

# TARGET_SYSTEM: Syk (Homo sapiens, UniProt P43405)
MEASURE: IC50

Below, each entry is followed by its recorded IC50 result.
molecule=NCCNc1nccn2nc(Nc3ccccc3)nc12 measure=IC50 result="3 to 50 µM"
molecule=COc1ccc(Nc2nc3c(-c4cnc5ccccc5c4)nccn3n2)cn1 measure=IC50 result="0.3 to 3 µM"
molecule=CN(C)CCCNc1nccn2nc(Nc3ccccc3)nc12 measure=IC50 result="3 to 50 µM"
molecule=COc1cc(Nc2nc3c(-c4cnn(C)c4)nccn3n2)cc(OC)c1 measure=IC50 result="< 0.3 µM"
molecule=COc1cc(OC)cc(-c2nccn3nc(Nc4ccccc4)nc23)c1 measure=IC50 result="< 0.3 µM"
molecule=FC(F)(F)c1cccc(Nc2nc3c(-c4cccnc4)nccn3n2)c1 measure=IC50 result="0.3 to 3 µM"
molecule=COc1cc(Nc2nc3c(NCCCN(C)C)nccn3n2)cc(OC)c1 measure=IC50 result="3 to 50 µM"
molecule=CN(C)c1ccc(-c2nccn3nc(Nc4ccc(N5CCOCC5)cc4)nc23)cn1 measure=IC50 result="< 0.3 µM"
molecule=Cc1cccc(Nc2nc3c(NCCN)nccn3n2)c1 measure=IC50 result="3 to 50 µM"
molecule=COc1cc(Nc2nc3c(-c4ccccc4)nccn3n2)cc(OC)c1 measure=IC50 result="< 0.3 µM"

input: # query: IC50 of entry Cn1ncc2cc(-c3nccn4nc(Nc5ccc(N6CCOCC6)cc5)nc34)ccc21 [Example D2]
output: < 0.3 µM

input: Cool, now `O=C1Nc2cc(Nc3nc4c(-c5nccs5)nccn4n3)ccc2OC1(F)F`
output: 3 to 50 µM
